Each entry below lists one item and its recorded pIC50 value.
- TARGET DESC: Phosphatidylinositol 3-kinase regulatory subunit alpha/4,5-bisphosphate 3-kinase catalytic subunit beta isoform (Homo sapiens, UniProt P27986+P42338)
- Sequence (P27986 whole entry, canonical isoform): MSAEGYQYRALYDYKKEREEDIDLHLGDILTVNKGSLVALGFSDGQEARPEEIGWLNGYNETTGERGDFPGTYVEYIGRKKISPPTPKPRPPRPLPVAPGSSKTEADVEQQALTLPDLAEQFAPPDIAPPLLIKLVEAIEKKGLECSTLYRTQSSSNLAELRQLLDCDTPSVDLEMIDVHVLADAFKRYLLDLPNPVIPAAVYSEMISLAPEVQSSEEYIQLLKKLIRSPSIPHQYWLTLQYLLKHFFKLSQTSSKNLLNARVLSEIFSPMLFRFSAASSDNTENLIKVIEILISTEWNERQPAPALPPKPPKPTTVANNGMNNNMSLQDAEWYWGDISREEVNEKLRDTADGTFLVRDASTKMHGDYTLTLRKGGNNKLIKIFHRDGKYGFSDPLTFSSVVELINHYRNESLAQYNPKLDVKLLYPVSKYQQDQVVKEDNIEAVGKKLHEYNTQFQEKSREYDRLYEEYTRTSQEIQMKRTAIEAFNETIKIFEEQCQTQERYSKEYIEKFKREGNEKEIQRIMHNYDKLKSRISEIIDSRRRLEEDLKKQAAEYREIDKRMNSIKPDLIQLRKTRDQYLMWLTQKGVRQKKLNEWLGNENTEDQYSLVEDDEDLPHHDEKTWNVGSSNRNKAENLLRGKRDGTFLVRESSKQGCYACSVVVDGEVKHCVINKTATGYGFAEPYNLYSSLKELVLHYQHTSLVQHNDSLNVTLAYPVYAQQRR
- Sequence (P42338 whole entry, canonical isoform): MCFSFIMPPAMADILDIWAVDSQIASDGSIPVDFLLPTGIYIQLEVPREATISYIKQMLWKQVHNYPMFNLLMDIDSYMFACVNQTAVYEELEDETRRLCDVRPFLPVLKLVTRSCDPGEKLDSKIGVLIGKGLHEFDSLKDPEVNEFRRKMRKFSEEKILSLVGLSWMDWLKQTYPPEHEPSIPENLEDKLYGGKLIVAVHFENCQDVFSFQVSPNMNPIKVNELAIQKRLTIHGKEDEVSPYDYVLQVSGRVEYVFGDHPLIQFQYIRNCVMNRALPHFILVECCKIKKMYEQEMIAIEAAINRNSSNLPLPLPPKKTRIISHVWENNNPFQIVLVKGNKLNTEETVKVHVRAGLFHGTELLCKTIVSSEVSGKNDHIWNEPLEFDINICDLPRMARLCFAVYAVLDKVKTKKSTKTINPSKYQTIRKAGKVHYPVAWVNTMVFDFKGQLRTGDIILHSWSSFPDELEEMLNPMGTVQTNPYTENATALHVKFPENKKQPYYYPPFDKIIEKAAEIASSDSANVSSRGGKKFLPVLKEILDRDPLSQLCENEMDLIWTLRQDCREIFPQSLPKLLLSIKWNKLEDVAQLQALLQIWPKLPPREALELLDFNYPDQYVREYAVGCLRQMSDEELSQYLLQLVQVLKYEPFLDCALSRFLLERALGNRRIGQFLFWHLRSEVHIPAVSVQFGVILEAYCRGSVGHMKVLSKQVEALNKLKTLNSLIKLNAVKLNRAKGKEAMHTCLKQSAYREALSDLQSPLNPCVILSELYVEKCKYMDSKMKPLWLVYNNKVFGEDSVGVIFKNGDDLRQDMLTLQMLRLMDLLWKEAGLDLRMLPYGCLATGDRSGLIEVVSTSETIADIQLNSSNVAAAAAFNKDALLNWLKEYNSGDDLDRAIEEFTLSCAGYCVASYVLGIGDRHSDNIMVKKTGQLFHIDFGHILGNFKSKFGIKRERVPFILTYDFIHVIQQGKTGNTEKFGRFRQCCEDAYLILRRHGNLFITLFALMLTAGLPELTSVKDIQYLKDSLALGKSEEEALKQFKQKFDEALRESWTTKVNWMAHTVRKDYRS
- ASSAY NAME: Inhibition of recombinant human full-length N-terminal His6-tagged p110beta/human recombinant full-length untagged p85alpha expressed in baculovirus infected Sf21 insect cells using PIP2 as substrate after 30 mins in presence of ATP at 2xKm concentration by TR-FRET assay
pIC50: −log10 of the molar value.

MOLECULAR STRING	pIC50
Cc1nc2c(-c3nnc[nH]3)cc(-c3cc(N)ncc3F)cc2n1-c1ccnc2c(F)ccc(F)c12	7.30
Clc1cccc2c(-n3cnc4c(-c5nnc[nH]5)cc(-c5ccncc5)cc43)ccnc12	8.30
Cc1cc(-c2cc(-c3nnc[nH]3)c3nc(C)n(-c4ccnc5c(F)ccc(F)c45)c3c2)ncn1	7.21
CNc1nccc(-c2cc(-c3nnc[nH]3)c3nc(C)n(-c4ccnc5c(F)ccc(F)c45)c3c2)c1F	5.85
Cc1nc2c(-c3nnc[nH]3)cc(-c3ccnc(N)c3)cc2n1-c1ccnc2c(F)ccc(F)c12	8.00
Cc1nccc(-c2cc(-c3nnc[nH]3)c3nc(C)n(-c4ccnc5c(F)ccc(F)c45)c3c2)n1	7.92
Cc1nc2c(-c3nnc[nH]3)cc(-c3ccnc(C#N)c3)cc2n1-c1ccnc2c(F)ccc(F)c12	8.40
